PROTOCOL_DESCRIPTION: Mammalian cytotoxicity, MTT, HepG2
Assay type: cell-based, human
EXPERIMENTAL_CONDITIONS: human, HepG2 hepatocellular carcinoma cells; Example 2; 72 hours, MTT; read-out: HepG2 TD50
Where a SMILES comes first, the peptide text is derived from it. [ ]: non-standard residue; d: D form. The star is where a group is joined. Gly(N-2-aminoethyl) = NCCNCC(=O)O; Gly(N-cHex) = O=C(O)CNC1CCCCC1; X1 = CCCCCCN(CCCCCC)CC(=O)*; Nlys = NCCCCNCC(=O)O
OUTCOME_MEASURE: CC50 at 72 h

# MOLECULE, RESULT
rows = [
    ("CCCCCCN(CCCCCC)CC(=O)N(CC(=O)N(CCCCN)CC(=O)N(CCN)CC(=O)N(CC(N)=O)C1CCCCC1)C1CCCCC1 [Compound 6] (X1-[Gly(N-cHex)][Nlys][Gly(N-2-aminoethyl)][Gly(N-cHex)]-NH2)", "> 200 µg/mL"),
]

----------
PROTOCOL_DESCRIPTION: in vitro
Format: cell-based, mouse
EXPERIMENTAL_CONDITIONS: mouse, 3T3 fibroblasts
Where a SMILES comes first, the peptide text is derived from it. [ ]: non-standard residue; d: D form. N(tridecyl)Gly = CCCCCCCCCCCCCNCC(=O)O; Gly(N-2-aminoethyl) = NCCNCC(=O)O; Gly(N-cHex) = O=C(O)CNC1CCCCC1; Nlys = NCCCCNCC(=O)O

# MOLECULE, CC50 at 72 h / µg/mL
rows = [
    ("CCCCCCCCCCCCCNCC(=O)N(CC(=O)N(CCCCN)CC(=O)N(CCN)CC(=O)N(CC(N)=O)C1CCCCC1)C1CCCCC1 [RMG8-8, Ntri-Ncha-Nlys-Nae-Ncha] (H-[N(tridecyl)Gly][Gly(N-cHex)][Nlys][Gly(N-2-aminoethyl)][Gly(N-cHex)]-NH2)", 59),
]

----------
As shown below, each of these molecules has a reported % ACN value.
PROTOCOL_DESCRIPTION: Percent acetonitrile at elution during RP-HPLC purification (hydrophobicity)
Type: physicochemical
EXPERIMENTAL_CONDITIONS: percent acetonitrile at the time of elution from HPLC
Where a SMILES comes first, the peptide text is derived from it. [ ]: non-standard residue; d: D form. NCyclohexylmethylGly = O=C(O)CNCC1CCCCC1; N(tridecyl)Gly = CCCCCCCCCCCCCNCC(=O)O; Gly(N-2-aminoethyl) = NCCNCC(=O)O; NHexGly = CCCCCCNCC(=O)O; Nlys = NCCCCNCC(=O)O
OUTCOME_MEASURE: % ACN (%)

# MOLECULE, NUMERIC_VALUE
records = [
    ("CCCCCCCCCCCCCNCC(=O)N(CC(=O)N(CCCCN)CC(=O)N(CCN)CC(=O)N(CC(N)=O)CC1CCCCC1)CC1CCCCC1 [Compound 12] (H-[N(tridecyl)Gly][NCyclohexylmethylGly][Nlys][Gly(N-2-aminoethyl)][NCyclohexylmethylGly]-NH2)", 71.4),
    ("CCCCCCCCCCCCCNCC(=O)N(CCCCCC)CC(=O)N(CCCCN)CC(=O)N(CCN)CC(=O)N(CCCCCC)CC(N)=O [Compound 10] (H-[N(tridecyl)Gly][NHexGly][Nlys][Gly(N-2-aminoethyl)][NHexGly]-NH2)", 73.3),
]

----------
Tested on: HepG2 hepatocellular carcinoma cells
PROTOCOL_DESCRIPTION: Mammalian cytotoxicity, MTT, HepG2
Assay type: cell-based, human
Where a SMILES comes first, the peptide text is derived from it. [ ]: non-standard residue; d: D form. N(tridecyl)Gly = CCCCCCCCCCCCCNCC(=O)O; Gly(N-2-aminoethyl) = NCCNCC(=O)O; Gly(N-cPent) = O=C(O)CNC1CCCC1; N(iPr)Gly = CC(C)NCC(=O)O; Nlys = NCCCCNCC(=O)O

# COMPOUND, HepG2 TD50
records = [
    ("CCCCCCCCCCCCCNCC(=O)N(CC(=O)N(CCCCN)CC(=O)N(CCN)CC(=O)N(CC(N)=O)C1CCCC1)C1CCCC1 [Compound 11] (H-[N(tridecyl)Gly][Gly(N-cPent)][Nlys][Gly(N-2-aminoethyl)][Gly(N-cPent)]-NH2)", "greater than 200 μg/mL"),
    ("CCCCCCCCCCCCCNCC(=O)N(CC(=O)N(CCCCN)CC(=O)N(CCN)CC(=O)N(CC(N)=O)CC1CCCO1)CC1CCCO1 (stereo not shown)", "greater than 200 μg/mL"),
    ("CCCCCCCCCCCCCNCC(=O)N(CC(=O)N(CCCCN)CC(=O)N(CCN)CC(=O)N(CC(N)=O)C(C)C)C(C)C [Compound 8] (H-[N(tridecyl)Gly][N(iPr)Gly][Nlys][Gly(N-2-aminoethyl)][N(iPr)Gly]-NH2)", "greater than 200 μg/mL"),
    ("CCCCCCCCCCCCCNCC(=O)N(CC(=O)N(CCCC[N+](C)(C)C)CC(=O)N(CC[N+](C)(C)C)CC(=O)N(CC(N)=O)C1CCCCC1)C1CCCCC1", "> 200 µg/mL"),
]

----------
PROTOCOL_DESCRIPTION: Mammalian cytotoxicity, MTT, HepG2
Format: cell-based, human
EXPERIMENTAL_CONDITIONS: human, HepG2 hepatocellular carcinoma cells
Where a SMILES comes first, the peptide text is derived from it. [ ]: non-standard residue; d: D form. The star is where a group is joined. N(4-Br-benzyl)Gly = O=C(O)CNCc1ccc(Br)cc1; NCyclohexylmethylGly = O=C(O)CNCC1CCCCC1; N(tridecyl)Gly = CCCCCCCCCCCCCNCC(=O)O; N(4-F-Bzl)Gly = O=C(O)CNCc1ccc(F)cc1; NBzl(4-I)Gly = O=C(O)CNCc1ccc(I)cc1; Gly(N-2-aminoethyl) = NCCNCC(=O)O; X2 = CCCCCCCCN(CCCCCCCC)CC(=O)*; Gly(N-cHex) = O=C(O)CNC1CCCCC1; Gly(N-cPent) = O=C(O)CNC1CCCC1; N(iPr)Gly = CC(C)NCC(=O)O; NPhGly = O=C(O)CNc1ccccc1; Nphe = O=C(O)CNCc1ccccc1; Nleu = CC(C)CNCC(=O)O; Nlys = NCCCCNCC(=O)O; Sar = CNCC(=O)O
OUTCOME_MEASURE: CC50 at 72 h (µg/mL)

# MOLECULE, READING_UNIT, READING_QUALIFIER, NUMERIC_VALUE
records = [
    ("CCCCCCCCCCCCCNCC(=O)N(CC(=O)N(CCCCN)CC(=O)N(CCN)CC(=O)N(CC(N)=O)c1ccccc1)c1ccccc1 [Compound 14] (H-[N(tridecyl)Gly][NPhGly][Nlys][Gly(N-2-aminoethyl)][NPhGly]-NH2)", "µg/mL", "=", 81),
    ("CCCCCCCCCCCCCNCC(=O)N(CC(=O)N(CCCCN)CC(=O)N(CCN)CC(=O)N(CC(N)=O)Cc1ccc(I)cc1)Cc1ccc(I)cc1 [Compound 20] (H-[N(tridecyl)Gly][NBzl(4-I)Gly][Nlys][Gly(N-2-aminoethyl)][NBzl(4-I)Gly]-NH2)", "µg/mL", "=", 72.2),
    ("CCCCCCCCCCCCCNCC(=O)N(CC(=O)N(CCCCN)CC(=O)N(CCN)CC(=O)N(CC(N)=O)CC1CCCO1)CC1CCCO1 (stereo not shown) [Compound 13]", "µg/mL", ">", 200),
    ("CCCCCCCCCCCCCNCC(=O)N(CC(=O)N(CCCCN)CC(=O)N(CCN)CC(=O)N(CC(N)=O)CC(C)C)CC(C)C [Compound 9] (H-[N(tridecyl)Gly][Nleu][Nlys][Gly(N-2-aminoethyl)][Nleu]-NH2)", "µg/mL", "=", 167),
    ("CCCCCCCCCCCCCNCC(=O)N(CC(=O)N(CCCCN)CC(=O)N(CCN)CC(=O)N(CC(N)=O)CC1CCCCC1)CC1CCCCC1 [Compound 12] (H-[N(tridecyl)Gly][NCyclohexylmethylGly][Nlys][Gly(N-2-aminoethyl)][NCyclohexylmethylGly]-NH2)", "µg/mL", "=", 62),
    ("CCCCCCCCCCCCCNCC(=O)N(CCCCN)CC(=O)N(CC(=O)N(CC(=O)N(CCN)CC(N)=O)C1CCCCC1)C1CCCCC1 [Compound 3] (H-[N(tridecyl)Gly][Nlys][Gly(N-cHex)][Gly(N-cHex)][Gly(N-2-aminoethyl)]-NH2)", "µg/mL", "=", 105),
    ("CCCCCCCCCCCCCNCC(=O)N(CC(=O)N(CCCCN)CC(=O)N(CCN)CC(=O)N(CC(N)=O)Cc1ccc(F)cc1)Cc1ccc(F)cc1 [Compound 17] (H-[N(tridecyl)Gly][N(4-F-Bzl)Gly][Nlys][Gly(N-2-aminoethyl)][N(4-F-Bzl)Gly]-NH2)", "µg/mL", "=", 150),
    ("CCCCCCCCCCCCCNCC(=O)N(CC(=O)N(CCCCN)CC(=O)N(CCN)CC(=O)N(CC(N)=O)Cc1ccccc1)Cc1ccccc1 [Compound 15] (H-[N(tridecyl)Gly][Nphe][Nlys][Gly(N-2-aminoethyl)][Nphe]-NH2)", "µg/mL", "=", 145),
    ("CCCCCCCCCCCCCNCC(=O)N(CC(=O)N(CCCCN)CC(=O)N(CCN)CC(=O)N(CC(N)=O)C1CCCC1)C1CCCC1 [Compound 11] (H-[N(tridecyl)Gly][Gly(N-cPent)][Nlys][Gly(N-2-aminoethyl)][Gly(N-cPent)]-NH2)", "µg/mL", ">", 200),
    ("CCCCCCCCCCCCCNCC(=O)N(CC(=O)N(CCCCN)CC(=O)N(CCN)CC(=O)N(CC(N)=O)C(C)C)C(C)C [Compound 8] (H-[N(tridecyl)Gly][N(iPr)Gly][Nlys][Gly(N-2-aminoethyl)][N(iPr)Gly]-NH2)", "µg/mL", ">", 200),
    ("CCCCCCCCCCCCCNCC(=O)N(CC(=O)N(CCCCN)CC(=O)N(C)CC(=O)N(CC(N)=O)C1CCCCC1)C1CCCCC1 [Position 4] (H-[N(tridecyl)Gly][Gly(N-cHex)][Nlys][Sar][Gly(N-cHex)]-NH2)", "µg/mL", "=", 84),
    ("CCCCCCCCCCCCCNCC(=O)N(CC(=O)N(CCCCN)CC(=O)N(CCN)CC(=O)N(CC(N)=O)Cc1ccc(Br)cc1)Cc1ccc(Br)cc1 [Compound 19] (H-[N(tridecyl)Gly][N(4-Br-benzyl)Gly][Nlys][Gly(N-2-aminoethyl)][N(4-Br-benzyl)Gly]-NH2)", "µg/mL", "=", 72.4),
    ("CCCCCCCCCCCCCNCC(=O)N(C)CC(=O)N(CCCCN)CC(=O)N(CCN)CC(=O)N(CC(N)=O)C1CCCCC1 [Position 2] (H-[N(tridecyl)Gly][Sar][Nlys][Gly(N-2-aminoethyl)][Gly(N-cHex)]-NH2)", "µg/mL", ">", 200),
    ("CCCCCCCCCCCCCNCC(=O)N(CC(=O)N(CCCCN)CC(=O)N(CCN)CC(=O)N(CC(N)=O)c1ccc2c(c1)CCC2)c1ccc2c(c1)CCC2 [Compound 22]", "µg/mL", "=", 91),
    ("CCCCCCCCCCCCCNCC(=O)N(CC(=O)N(CCCC[N+](C)(C)C)CC(=O)N(CC[N+](C)(C)C)CC(=O)N(CC(N)=O)C1CCCCC1)C1CCCCC1 [Compound 1]", "µg/mL", ">", 200),
    ("CCCCCCCCN(CCCCCCCC)CC(=O)N(CC(=O)N(CCCCN)CC(=O)N(CCN)CC(=O)N(CC(N)=O)C1CCCCC1)C1CCCCC1 [Compound 7] (X2-[Gly(N-cHex)][Nlys][Gly(N-2-aminoethyl)][Gly(N-cHex)]-NH2)", "µg/mL", "=", 162),
]
